Attribution: paper PMC5540273

- Tested on: SYK
- Cond: concentration: 1 μM, replicates: in singlicate; n = 1;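 also: KINOMEscan kinase panel screen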
Label 1 when %Inh >= 20%; otherwise 0.

1) N#CC1(c2cccc(C(=O)Nc3cccc(Oc4ccc5nc(NC(=O)C6CC6)sc5n4)c3)c2)CC1	1
2) Cl.O=C(Nc1ccc(Oc2ccc3[nH]c(NC(=O)c4ccco4)nc3c2)cc1)Nc1cc(C(F)(F)F)ccc1F [GW683134]	1
3) COc1cc(Nc2ccnc3cc(-c4ccncc4)ccc23)cc(OC)c1OC.Cl [GW494610]	0
4) Fc1cc(Cl)ccc1Nc1ccnc2cc(-c3ccc(CN4CCOCC4)o3)ccc12 [GW560109]	0
5) NCCC(NC(=O)c1cc(Br)c(-c2ccnc3[nH]ccc23)s1)c1ccccc1.O=C(O)C(F)(F)F.O=C(O)C(F)(F)F (stereo not shown) [GSK1307810]	0
6) CN(c1ccc2c(c1)nc(NCc1ccccc1)n2C)c1ccnc(Nc2ccc(CS(C)(=O)=O)cc2)n1.Cl [GW811603]	1
7) Cl.Cl.NCC(NC(=O)c1cc(-c2cccnc2)c(-c2ccnc3[nH]ccc23)s1)c1ccccc1 (stereo not shown) [GSK1323434]	0
8) COc1cc(Nc2nccc(N3CCC(NS(=O)(=O)c4ccc(NC(C)=O)cc4)CC3)n2)cc(OC)c1OC [GSK1379825]	1
9) O=C(O)C(F)(F)F.O=c1[nH]ccc2nc(N[C@@H]3CCNC3)nc(Nc3cc(Cl)cc(Cl)c3)c12 [GSK2188764]	1
10) Cc1ccccc1CC(=O)N1CCc2cc(-c3cn(C)c4ncnc(N)c34)ccc21 [GSK2603346]	0
11) COc1cccc(C2=C(Nc3cccc(O)c3)C(=O)NC2=O)c1 [SB-390771]	1
12) COC(=O)Nc1nc2cc(Oc3ccc(NC(=O)Nc4cccc(SC)c4)cc3)ccc2[nH]1.Cl [GW697999]	1

* * *

Recorded %Inh by entry
- Tested on: SNARK
- Construct: gene NUAK2
- Cond: concentration: 1 μM, replicates: in singlicate; n = 1
Reported metric: %Inh (%)

1) CS(=O)(=O)c1cccc(CNc2nc(Nc3ccc4c(c3)CCC(=O)N4)ncc2C(F)(F)F)c1	81
2) CC(C)NCC(Cc1ccccc1)NC(=O)c1cc(Br)c(-c2ccnc3[nH]ccc23)s1.Cl.Cl (centres unmarked)	89
3) Cc1ccc(Nc2ccnc(Nc3ccc(C)c(F)c3)n2)cc1O.Cl	0
4) CCn1c(-c2nonc2N)nc2c(-c3ccccc3)ncc(OCCCN)c21.O=C(O)C(F)(F)F.O=C(O)C(F)(F)F	0
5) COc1cccc(CC(=O)N2CCc3cc(-c4cn(C)c5ncnc(N)c45)ccc32)c1	35
6) COc1cc(Nc2nccc(N3CCC(NC(=O)Nc4ccc5c(c4)OCO5)C3)n2)cc(OC)c1OC (centres unmarked)	13
7) COC(=O)Nc1nc2ccc(Oc3ccc(NC(=O)Nc4cc(C(F)(F)F)ccc4F)cc3)cc2[nH]1.Cl	0
8) CN(c1ccc(F)c(NC(=O)c2cccc(OC(C)(C)C#N)c2Cl)c1)c1ccc2nc(NC(=O)C3CC3)sc2n1	0

* * *

Recorded %Inh by entry
- System: YSK4
- Construct: gene MAP3K19
- Cond: concentration: 1 μM, replicates: in singlicate; n = 1
Reported metric: %Inh (%)

1) Cn1cc(-c2ccc3c(c2)CCN3C(=O)Cc2cc(F)cc(F)c2F)c2c(N)ncnc21 [GSK2634140]	96.7
2) Cc1ccc(-c2ccc3occ(-c4ccc(S(C)=O)cc4)c3c2)nn1 (stereo not drawn)	4
3) CN(C)CCOc1ccc(-c2cc(-c3ccc(Cl)c(O)c3)c(-c3ccncc3)[nH]2)cc1.Cl.Cl [SB-684387]	27
4) Cc1ccc(O)cc1Nc1ccnc2ccc(C(C)(C)C)cc12 [GW856805]	48
5) O=C(O)C(F)(F)F.O=c1[nH]ccc2nc(N[C@@H]3CCNC3)nc(Nc3ccc4c(c3)S(=O)(=O)CC4)c12 [GSK2181306]	99.7
6) COc1cccc(CC(=O)N2CCc3cc(-c4cn(C)c5ncnc(N)c45)ccc32)c1 [GSK2608899]	96.9
7) CNc1nccc(-c2ccc3c(N)n[nH]c3c2)n1 [GSK2206003]	76
8) Fc1cc(Cl)ccc1Nc1ccnc2cc(-c3ccc(CN4CCSCC4)o3)ccc12 [GW560106]	66
9) c1ccc(Oc2ccc(Nc3ccnc4cc(-c5ccc(CN6CCCCC6)o5)ccc34)cc2)nc1 [GW567143]	32
10) O=C(O)C(F)(F)F.O=c1[nH]ccc2nc(N[C@@H]3CCNC3)nc(Nc3cc(Cl)cc(Cl)c3)c12 [GSK2188764]	99.7
11) COc1cccc(C2=C(Nc3cccc(O)c3)C(=O)NC2=O)c1 [SB-390771]	43
12) COc1ccc(NC(=O)c2ccoc2)cc1-c1ccc(C(=O)NCC2CC2)cc1 [GW810437]	34
13) Cc1ccc(Nc2ccnc(Nc3ccc(C)c(F)c3)n2)cc1O.Cl [GW582868]	25
14) Fc1cc(Cl)ccc1Nc1ccnc2cc(-c3ccc(CN4CCOCC4)o3)ccc12 [GW560109]	71
15) COc1cccc2c(-c3ccncc3)c(-c3ccc(F)cc3)nn12 [GW468513]	6
16) CN(C)c1ncnc2nc[nH]c12 [SKF-31736]	10
17) CCn1c(-c2nonc2N)nc2c(-c3ccccc3)ncc(OCCCN)c21.O=C(O)C(F)(F)F.O=C(O)C(F)(F)F [GSK260205]	99.6
18) COc1cccc(NC(=O)NCCNc2ccnc(Nc3ccc(F)cc3)n2)c1 [GSK1379879]	44
